Catalogue of MCL-1% Bound values
target: MCL-1ΔNΔC (Homo sapiens); experiment: High-throughput competitive FP binding screen, FITC-MCL-1 SAHB/MCL-1ΔNΔC interaction; set-up: the C-terminal alpha-helix was deleted from each of these constructs; GST (N, cleaved yes); made in house; details: FITC-MCL-1 SAHB/MCL-1ΔNΔC interaction pair, competitive FP screen
Sequence (Q07820 172-320 limits assumed, stated change not applied): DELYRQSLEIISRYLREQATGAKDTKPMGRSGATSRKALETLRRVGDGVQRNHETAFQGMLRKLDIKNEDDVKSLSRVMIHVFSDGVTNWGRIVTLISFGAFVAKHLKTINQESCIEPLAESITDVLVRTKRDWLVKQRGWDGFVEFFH
Report the figure in % without appending any unit label.

molecule	MCL-1% Bound / %
O=C(O)CC1NC(=S)N(Cc2ccccc2)C1=O (centres unmarked)	48.71
O=c1cc(-c2ccccc2)oc2cc(O)c(O)c(O)c12 [drawing 19]	10.32
COc1ccc(C(Nc2cc(C)ccn2)c2ccc3cccnc3c2O)cc1O (centres unmarked)	27.17
Cc1c(Cl)cccc1N1C(=O)CC(N2CCCc3ccccc32)C1=O (centres unmarked)	35.82

# input Please give measured MCL-1% Bound of the following entry: O=C(OCC1O[C@H](OC(=O)c2cc(O)c(O)c(OC(=O)c3cc(O)c(O)c(O)c3)c2)[C@H](OC(=O)c2cc(O)c(O)c(OC(=O)c3cc(O)c(O)c(O)c3)c2)[C@@H](OC(=O)c2cc(O)c(O)c(OC(=O)c3cc(O)c(O)c(O)c3)c2)[C@@H]1OC(=O)c1cc(O)c(O)c(OC(=O)c2cc(O)c(O)c(O)c2)c1)c1cc(O)c(O)c(OC(=O)c2cc(O)c(O)c(O)c2)c1 (some centres unmarked) [Tannic Acid, reference compound]
# output 15.94
